I'd be grateful if you could share measured cytotoxicity at 70.5 h for these entries.
assay notes: Human HepG2 cell viability assay in 384 well format
Assay type: toxicity, cell-based
Parameters: dose 125 nL, time 70.5 hour; concentration not given beside the values
experimental setup: HepG2 cells, read-out: Inhibition
Could you give me the number in %? Just the number is fine.

Exercise: // Input: CN(Cc1cncnc1)Cc1cn2c(n1)CN(C1CCOC1)CC2 (configuration not stated) . Output its cytotoxicity at 70.5 h only.
Solution: -13.2

Exercise: // Input: CCOC(C)c1noc(CN2CCN(c3ccncc3)CC2)n1 (configuration not stated) . Output its cytotoxicity at 70.5 h only.
Solution: -6.31

Exercise: // Input: Cc1c(C)n(Cc2ccccn2)c2nc3c(c(N)c12)CCCC3 . Output its cytotoxicity at 70.5 h only.
Solution: -14.4

Exercise: // Input: CCn1c(CN(C)C)nnc1C1CCN(Cc2cnc(C)nc2)CC1 . Output its cytotoxicity at 70.5 h only.
Solution: -5.5

Exercise: // Input: O=C1[C@@H]2CCN(Cc3ccoc3)C[C@@H]2OCCN1c1cccnc1 . Output its cytotoxicity at 70.5 h only.
Solution: -13.5

Exercise: // Input: CCn1c(C)cc(-c2csc(Cn3ccc(=O)[nH]c3=O)n2)c1C . Output its cytotoxicity at 70.5 h only.
Solution: -4.42

Exercise: // Input: CC(C)C1=NOC2(CCN(C(=O)C3CCCC3)CC2)C1 . Output its cytotoxicity at 70.5 h only.
Solution: -11.9

Exercise: // Input: CC(C)C(=O)N1CCC12CCCN(C(=O)c1ccnnc1)C2 (configuration not stated) . Output its cytotoxicity at 70.5 h only.
Solution: -6.79

Exercise: // Input: CC1(C)CC1(C(=O)N1CC(c2cccnc2)C1)c1ccccc1F (configuration not stated) . Output its cytotoxicity at 70.5 h only.
Solution: -7.64

Exercise: // Input: CN(Cc1ccsc1)C(=O)c1nc(N2CCCC2)ncc1Cl . Output its cytotoxicity at 70.5 h only.
Solution: -6.35

Exercise: // Input: CC(C)c1ccc(CS(=O)(=O)Cc2nc(N)nc(N(C)C)n2)cc1 . Output its cytotoxicity at 70.5 h only.
Solution: -6.09

Exercise: // Input: Cc1nn(C)cc1-c1ccnc(N2CCN(c3ccccc3)C(=O)C2)n1 . Output its cytotoxicity at 70.5 h only.
Solution: -3.19

Exercise: // Input: Cc1cc(F)ccc1OC1(C(=O)O)CCN(Cc2cccnc2N)CC1 . Output its cytotoxicity at 70.5 h only.
Solution: 0.105

Exercise: // Input: NC(=O)c1cccc(CNC(=O)NCCOc2ccc(F)c(F)c2)c1 . Output its cytotoxicity at 70.5 h only.
Solution: -2.9

Exercise: // Input: Cc1oc(C(C)C)cc1C(=O)N1C[C@H]2CC[C@@H]1CN(S(=O)(=O)N(C)C)C2 . Output its cytotoxicity at 70.5 h only.
Solution: -7.52

Exercise: // Input: COc1cc(C(=O)O)cc(I)c1OCC(=O)NCCc1ccccc1 . Output its cytotoxicity at 70.5 h only.
Solution: -4.57

Exercise: // Input: CCSc1ccccc1C(=O)N1CC2(COC(C)(C)OC2)C1 . Output its cytotoxicity at 70.5 h only.
Solution: -4.65

Exercise: // Input: NC(=O)CC1CCN(C(=O)c2cnc(-c3ccccc3F)s2)CC1 . Output its cytotoxicity at 70.5 h only.
Solution: -22.8

Exercise: // Input: Cc1nc(C)c(C(=O)NCCNC(=O)c2ccc(F)cc2F)s1 . Output its cytotoxicity at 70.5 h only.
Solution: -6.45

Exercise: // Input: CCS(=O)(=O)CCNC(=O)c1ccc(-c2ccc(C)cc2)cc1F . Output its cytotoxicity at 70.5 h only.
Solution: -6.67

Exercise: // Input: COc1ccc(NC(=O)N2CCCC(CO)C2)c(C)c1 (configuration not stated) . Output its cytotoxicity at 70.5 h only.
Solution: -6.09

Exercise: // Input: CCc1nccn1C1CCCN(C(=O)c2ccc3c(c2)OCCO3)C1 (configuration not stated) . Output its cytotoxicity at 70.5 h only.
Solution: -9.17

Exercise: // Input: O=C1CCC(C(=O)Nc2ccc(=O)n(Cc3ccccc3Cl)c2)N1 (configuration not stated) . Output its cytotoxicity at 70.5 h only.
Solution: -4.13

Exercise: // Input: COc1c(C(=O)NCc2cccnc2)nnn1Cc1ccccc1 . Output its cytotoxicity at 70.5 h only.
Solution: -7.04

Exercise: // Input: NC(=O)c1csc(N2C[C@@H](CN3CCOCC3)[C@@H](CO)C2)n1 . Output its cytotoxicity at 70.5 h only.
Solution: -2.9

Exercise: // Input: CC(=O)N[C@@H]1CN(Cc2ccccc2C#N)C[C@H]1c1ccc(C)cc1 . Output its cytotoxicity at 70.5 h only.
Solution: -21.6

Exercise: // Input: Cc1ccccc1Oc1ncccc1CNS(=O)(=O)N(C)C . Output its cytotoxicity at 70.5 h only.
Solution: -1.73

Exercise: // Input: CC(=O)N(Cc1ncc(C)o1)C1CCN(Cc2cccc(C#N)c2)C1 (configuration not stated) . Output its cytotoxicity at 70.5 h only.
Solution: -5.2

Exercise: // Input: CC(C)N(CC(N)=O)C(=O)c1cc(F)ccc1N1CCN(C)CC1 . Output its cytotoxicity at 70.5 h only.
Solution: -5.36

Exercise: // Input: Cn1cc(CN2CCCC3(CCN(C(=O)c4ccoc4)C3)C2)cn1 (configuration not stated) . Output its cytotoxicity at 70.5 h only.
Solution: -11

Exercise: // Input: CCn1nc(C)c2nnn(CC(=O)Nc3c(C)cccc3C)c(=O)c21 . Output its cytotoxicity at 70.5 h only.
Solution: 27.9

Exercise: // Input: CCCc1nc(C(C)(C)NC(=O)C2CC(=O)N(C3CCCC3)C2)no1 (configuration not stated) . Output its cytotoxicity at 70.5 h only.
Solution: -11.9

Exercise: // Input: CC[C@H]1CN2CC[C@H]1C[C@@H]2CNCc1cccc(C#N)c1 . Output its cytotoxicity at 70.5 h only.
Solution: 13

Exercise: // Input: COCC(=O)N1CCC2(CCC(C(=O)N3CCCC3)O2)CC1 (configuration not stated) . Output its cytotoxicity at 70.5 h only.
Solution: 10.4

Exercise: // Input: Fc1ccc(CN2CCO[C@H]3[C@H](OCc4ccncc4)CC[C@@H]32)cc1 . Output its cytotoxicity at 70.5 h only.
Solution: 55.8

Exercise: // Input: COc1ccc(Cl)cc1NCc1cc(C)on1 . Output its cytotoxicity at 70.5 h only.
Solution: -3.4

Exercise: // Input: CC(C)(O)CCc1ccc(C(=O)NCCC2CCOC2)cc1 (configuration not stated) . Output its cytotoxicity at 70.5 h only.
Solution: -2.2

Exercise: // Input: Cc1nnc(CN2C[C@H]3CC[C@@H]2CN(C2Cc4ccccc4C2)C3)o1 . Output its cytotoxicity at 70.5 h only.
Solution: 4.16

Exercise: // Input: CC(C)(C)c1ccc(=O)n(CN2CCCC(C(F)(F)F)C2)n1 (configuration not stated) . Output its cytotoxicity at 70.5 h only.
Solution: -7.29

Exercise: // Input: CCCS(=O)(=O)NC1CCN(c2cccc(F)c2C#N)CC1 . Output its cytotoxicity at 70.5 h only.
Solution: -19.1

Exercise: // Input: CC(CNC(=O)NCc1ccco1)CC1(C)OCCO1 (configuration not stated) . Output its cytotoxicity at 70.5 h only.
Solution: 15.5

Exercise: // Input: CN(Cc1ccc(CCC(C)(C)O)cc1)Cc1cccc(O)c1 . Output its cytotoxicity at 70.5 h only.
Solution: -8.03

Recorded values, source ChEMBL document CHEMBL3507680.
